- MEASURED_TARGET: Mitogen-activated protein kinase 3 (Homo sapiens)
- Sequence (P27361 whole entry): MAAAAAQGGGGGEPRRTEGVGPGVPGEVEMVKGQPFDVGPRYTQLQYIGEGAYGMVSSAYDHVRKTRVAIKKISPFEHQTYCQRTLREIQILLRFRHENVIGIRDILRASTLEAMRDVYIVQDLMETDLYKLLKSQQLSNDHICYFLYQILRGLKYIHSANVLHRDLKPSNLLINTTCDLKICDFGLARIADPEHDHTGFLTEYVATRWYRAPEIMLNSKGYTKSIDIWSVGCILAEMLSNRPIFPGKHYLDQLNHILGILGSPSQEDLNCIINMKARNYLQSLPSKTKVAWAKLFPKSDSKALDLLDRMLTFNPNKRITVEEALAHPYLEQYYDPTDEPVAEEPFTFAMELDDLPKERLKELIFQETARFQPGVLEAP
The recorded ΔTm of each item maps onto one of these classes: lower range = under 0.2 °C, middle range = from 0.2 °C up to 0.9 °C, upper range = 0.9 °C and over

                                    compound  assigned_label
 0     COc1ccc2c(c1)/C(=C/c1cnc[nH]1)C(=O)N2     upper range
 1  N#C/C(=C(/N)Sc1ccc(N)cc1)c1ccccc1C(F)(F)F     lower range
 2  O=[N+]([O-])c1ccc(-c2nc(-c3ccc(F)cc3)c(-c3ccncc3)[nH]2)cc1    middle range
 3  N#C/C(=C1/Nc2ccccc2S1)c1ccnc(NCCc2cccnc2)n1     upper range
 4       Cc1ccc(NC2=CC(=O)c3sc(C)nc3C2=O)cc1     lower range
 5  Cc1[nH]c(/C=C2\C(=O)Nc3ccc(S(=O)(=O)N(C)c4cccc(Cl)c4)cc32)c(C)c1C(=O)N1CCN(C)CC1     lower range
 6    N#C/C(=C\c1ccc(O)c(O)c1)C(=O)Nc1ccccc1    middle range
 7  Cc1ccc(NC(=O)c2ccc(CN3CCN(C)CC3)cc2)cc1Nc1nccc(-c2cccnc2)n1    middle range
 8  CC(C)c1nn(-c2c(Cl)cccc2Cl)c2nc(Cc3ccc(OCCO)cc3)[nH]c(=O)c12     upper range
 9  C[S+]([O-])c1ccc(CSc2nc(-c3ccc(F)cc3)c(-c3ccncc3)[nH]2)cc1 (stereo not given)    middle range
10  Cc1nc(N)sc1-c1ccnc(Nc2cccc([N+](=O)[O-])c2)n1     upper range
11  Cc1nc2sccn2c(=O)c1CCN1CCC(=C(c2ccccc2)c2ccc(F)cc2)CC1     lower range
12  COc1cc2ncnc(Nc3ccc(NC(=O)c4ccccc4)cc3)c2cc1OC    middle range
13   O=C1Nc2ccc(I)cc2/C1=C1/Nc2ccccc2/C1=N\O     upper range

----------
Observed ΔTm for Serine/threonine-protein kinase OSR1 (Homo sapiens) (UniProt O95747), reported per entry below.
MEASURED_ENDPOINT: ΔTm

In [3]: df
Out[3]:
                                    compound  endpoint_result
 0  O=c1c(-c2ccc(F)cc2)c(-c2ccncc2)[nH]n1-c1ccc(Cl)cc1           0.2 °C
 1  CC(C)[C@H](CO)Nc1nc(Nc2cc(N)cc(Cl)c2)c2ncn(C(C)C)c2n1           2.6 °C
 2         O=c1sn(Cc2ccccc2)c(=S)n1Cc1ccccc1           0.1 °C
 3    COc1ccc(Cl)cc1NC(=O)Nc1cc(C)nc2ccccc12           0.6 °C
 4  CC(=O)O/N=C1/C(=C2/C(=O)Nc3cc(Br)ccc32)Nc2ccccc21          -1.1 °C
 5               Cc1cc2ncc(-c3ccccc3)nc2cc1C           0.5 °C
 6  C[S+]([O-])c1ccc(-c2nc(-c3ccc(F)cc3)c(-c3ccncc3)[nH]2)cc1 (configuration not stated)          -0.2 °C
 7     CN1CCc2[nH]c(=S)c(C#N)c(-c3cccs3)c2C1           0.8 °C
 8       CCOc1ccc(/C=C2/SC(=O)N(CCN)C2=O)cc1          -0.1 °C
 9  COc1cc(OC)c(/C=C2\C(=O)Nc3ccccc32)c(OC)c1           0.2 °C
10    N#C/C(=C\c1ccc(O)c(O)c1)C(=O)Nc1ccccc1           0.6 °C
11  N#CCCc1ccc2c(c1)-c1[nH]c3ccc([N+](=O)[O-])cc3c1CC(=O)N2           0.8 °C
12  Cn1cc(C2=C(c3cn(CCCN)c4ccccc34)C(=O)NC2=O)c2ccccc21          -0.1 °C
13                                   C=CNC#N             0 °C
14      O=S(=O)(c1cccc2c(Cl)cccc12)N1CCCNCC1          -0.5 °C
15  COc1cc2c(cc1OC)-c1n[nH]c(Nc3cccc(F)c3)c1C2           0.6 °C
16  COc1ccc2c(c[n+](C)c3c4cc5c(cc4ccc23)OCO5)c1OC [CHELERYTHRINE CHLORIDE]          -2.6 °C
17    Clc1ccc(Nc2nnc(Cc3ccncc3)c3ccccc23)cc1           0.8 °C
18     O=c1cc(N2CCOCC2)oc2c(-c3ccccc3)cccc12           0.4 °C
19                    O=c1ccc2ccc(O)c(O)c2o1           0.1 °C
20  CN(C)CC1CCn2c(c(C3=C(c4c[nH]c5ccccc45)C(=O)NC3=O)c3ccccc32)C1 (configuration not stated)          -0.4 °C
21          c1ccc(-c2n[nH]c3c2oc2ccccc23)cc1           0.8 °C

----------
Observed ΔTm for Cyclin-dependent kinase 6 (Homo sapiens) (UniProt Q00534), reported per entry below.
MEASURED_ENDPOINT: ΔTm (°C)

In [3]: df
Out[3]:
                                    compound  unit_name  endpoint_result
 0   COc1ccc(COc2ccc(Cc3cnc(N)nc3N)cc2OC)cc1         °C              0.9
 1    CC(C)n1cnc2c(NCc3ccccc3O)nc(NCCCO)nc21         °C                0
 2    Nc1n[nH]c2nc3ccccc3nc12 [QUINOXALINE1]         °C              0.6
 3           Nc1cc2ncnc(Nc3cccc(Br)c3)c2cc1N         °C              0.8
 4  O=C1C(Cl)=C(N2C(=O)CCC2=O)C(=O)c2ccccc21         °C              1.6
 5        O=c1ccc2ccc(O)c(O)c2o1 [DAPHNETIN]         °C             -0.3
 6       Cc1ccc(NC2=CC(=O)c3sc(C)nc3C2=O)cc1         °C             -1.7
 7  C#Cc1cccc(Nc2ncnc3cc(OCCOC)c(OCCOC)cc23)c1         °C              0.5
 8  COc1ccc(CNC(=O)Nc2ncc([N+](=O)[O-])s2)cc1         °C              0.2
 9  Cc1cncc2cccc(S(=O)(=O)N3CCCNC[C@@H]3C)c12         °C             -0.1
10  CC(C)n1cnc2/c(=N/c3cccc(Cl)c3)nc(NCCO)[nH]c21         °C                0
11      O=c1c(-c2ccc(O)cc2)coc2cc(O)cc(O)c12         °C              0.1
12         O=c1sn(Cc2ccccc2)c(=S)n1Cc1ccccc1         °C             -0.4
13  O=C1Nc2ccc(S(=O)(=O)O)cc2/C1=C1/Nc2ccccc2/C1=N\O         °C              2.9
14  NS(=O)(=O)c1ccc(Nc2nc(OCC3CCCCC3)c3nc[nH]c3n2)cc1         °C              4.9
15  Nc1nc(Nc2ccc(S(N)(=O)=O)cc2)nn1C(=S)Nc1c(F)cccc1F         °C              4.6
16  COc1cc2c(cc1OC)-c1n[nH]c(Nc3cccc(F)c3)c1C2         °C              1.7
17  O=C1c2ccccc2-[n+]2ccc3c([nH]c4ccccc43)c21 [FASCAPLYSIN CHLORIDE]         °C              0.2
18            O=C1c2ccccc2-c2n[nH]c3cccc1c23         °C              0.3
19  CN[C@@H]1CC2O[C@@](C)([C@@H]1OC)n1c3ccccc3c3c4c(c5c6ccccc6n2c5c31)C(=O)NC4         °C                1
20  COc1cc(C[C@H]2C(=O)OC[C@@H]2Cc2ccc(OC)c(OC)c2)ccc1O [ARCTIGENIN]         °C              0.4
21  O=[N+]([O-])c1ccc(-c2nc(-c3ccc(F)cc3)c(-c3ccncc3)[nH]2)cc1         °C              0.9
22  OC[C@H]1O[C@@H](n2cnc3cc(Cl)c(Cl)cc32)[C@H](O)[C@@H]1O         °C             -0.3
23  Nc1nccc(-c2c(-c3ccc(F)cc3)ncn2C2CCNCC2)n1         °C              0.3
24  CCOc1ccc(/C=C2/SC(=O)N(CCN)C2=O)cc1 [HIAZOLIDINEDIONE1]         °C              0.2
25  Nc1cccc(-c2cc3c(Oc4cccc(O)c4)ncnc3[nH]2)c1         °C              0.9
26           O=C(O)c1cc(NCc2cc(O)ccc2O)ccc1O         °C             -0.3
27           NCCNS(=O)(=O)c1cccc2c(Cl)cccc12         °C             -0.1
28  Brc1c(Br)c(Br)c2[nH]nnc2c1Br [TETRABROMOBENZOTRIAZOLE]         °C              0.3
29  CN(C)S(=O)(=O)c1ccc2c(c1)/C(=C/c1cc3c([nH]1)CCCC3)C(=O)N2         °C             -0.9
30          COc1cc2ncnc(Nc3cccc(O)c3)c2cc1OC         °C             -0.2
31  CC(C)c1nn(-c2c(Cl)cccc2Cl)c2nc(Cc3ccc(OCCO)cc3)[nH]c(=O)c12         °C              0.5
32          COc1cccc(-c2cc(=O)c3ccccc3o2)c1N         °C              0.1
33        C/C(O)=C(\C#N)C(=O)Nc1cc(Br)ccc1Br         °C              0.2
34  Cc1nc(Nc2ncc(C(=O)Nc3c(C)cccc3Cl)s2)cc(N2CCN(CCO)CC2)n1         °C             -0.1
35  O=c1c(-c2ccc(F)cc2)c(-c2ccncc2)[nH]n1-c1ccc(Cl)cc1         °C              0.6
36  O=C1NC(=O)C(c2cn(CCCn3ccnc3)c3ccccc23)=C1Nc1ccccc1         °C              0.9
37  Cc1[nH]c(/C=C2\C(=O)Nc3ccc(S(=O)(=O)N(C)c4cccc(Cl)c4)cc32)c(C)c1C(=O)N1CCN(C)CC1         °C             -0.4
38  NC1=N/C(=C2/CCNC(=O)c3[nH]ccc32)C(=O)N1 [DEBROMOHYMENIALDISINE]         °C              0.6
39   CCOC(=O)c1cnc2oc3ccc(O)cc3c2c1-c1ccccc1         °C              0.1
40  NC(=O)c1ccc2[nH]c(-c3ccc(Oc4ccc(Cl)cc4)cc3)nc2c1         °C              0.6
41  Cn1cc(C2=C(c3cn(CCCSC(=N)N)c4ccccc34)C(=O)NC2=O)c2ccccc21         °C              3.2
42  N#C/C(=C(/N)Sc1ccc(N)cc1)c1ccccc1C(F)(F)F         °C              0.3
